assay-protocol: Apparent permeability from apical to basolateral in RRCK cells
Assay type: ADME, cell-based, Canis lupus familiaris, MDCKII-LE
condition-context: dog, MDCK
value-type: Papp A→B

[ask] Value lookup for Papp A→B; key = C[C@@H](C(N)=O)[C@H](N)c1nc2ccc(C(C)(C)C)cc2[nH]1
[reply] 3.5 ×10⁻⁶ cm/s

[ask] Value lookup for Papp A→B; key = C[C@@H](C(N)=O)[C@H](N)c1cn2cc(C(C)(C)C)ccc2n1
[reply] 2.2 ×10⁻⁶ cm/s

###

assay-protocol: Solubility of the compound at pH 7.4
Format: physicochemical
condition-context: buffer
value-type: solubility (µg/mL)
State the answer as a number, implicitly in µg/mL.

[ask] Value lookup for solubility; key = C[C@@H](C(N)=O)[C@H](N)c1nc2ccc(C(C)(C)C)cc2[nH]1 [PF-06305591]
[reply] 2000

###

assay-protocol: Lipophilicity, log D of the compound
Type: physicochemical
condition-context: octanol/water
value-type: logD
Just the number, please, no unit attached.

[ask] Value lookup for logD; key = C[C@@H](C(N)=O)[C@H](N)c1nc2ccc(C(C)(C)C)cc2[nH]1
[reply] 2.1

###

assay-protocol: Dissociation constant, pKa of the compound
Type: physicochemical
So I've got a bunch of molecules here, and I need their pKa values.
Just the number, please, no unit attached.

[ask] Value lookup for pKa; key = C[C@@H](C(N)=O)[C@H](N)c1nc2ccc(C(C)(C)C)cc2[nH]1
[reply] 5.9

[ask] Value lookup for pKa; key = C[C@@H](C(N)=O)[C@H](N)c1cn2cc(C(C)(C)C)ccc2n1
[reply] 7

###

system-name: Sodium channel protein type 5 subunit alpha (Homo sapiens)
Sequence (Q14524 whole entry): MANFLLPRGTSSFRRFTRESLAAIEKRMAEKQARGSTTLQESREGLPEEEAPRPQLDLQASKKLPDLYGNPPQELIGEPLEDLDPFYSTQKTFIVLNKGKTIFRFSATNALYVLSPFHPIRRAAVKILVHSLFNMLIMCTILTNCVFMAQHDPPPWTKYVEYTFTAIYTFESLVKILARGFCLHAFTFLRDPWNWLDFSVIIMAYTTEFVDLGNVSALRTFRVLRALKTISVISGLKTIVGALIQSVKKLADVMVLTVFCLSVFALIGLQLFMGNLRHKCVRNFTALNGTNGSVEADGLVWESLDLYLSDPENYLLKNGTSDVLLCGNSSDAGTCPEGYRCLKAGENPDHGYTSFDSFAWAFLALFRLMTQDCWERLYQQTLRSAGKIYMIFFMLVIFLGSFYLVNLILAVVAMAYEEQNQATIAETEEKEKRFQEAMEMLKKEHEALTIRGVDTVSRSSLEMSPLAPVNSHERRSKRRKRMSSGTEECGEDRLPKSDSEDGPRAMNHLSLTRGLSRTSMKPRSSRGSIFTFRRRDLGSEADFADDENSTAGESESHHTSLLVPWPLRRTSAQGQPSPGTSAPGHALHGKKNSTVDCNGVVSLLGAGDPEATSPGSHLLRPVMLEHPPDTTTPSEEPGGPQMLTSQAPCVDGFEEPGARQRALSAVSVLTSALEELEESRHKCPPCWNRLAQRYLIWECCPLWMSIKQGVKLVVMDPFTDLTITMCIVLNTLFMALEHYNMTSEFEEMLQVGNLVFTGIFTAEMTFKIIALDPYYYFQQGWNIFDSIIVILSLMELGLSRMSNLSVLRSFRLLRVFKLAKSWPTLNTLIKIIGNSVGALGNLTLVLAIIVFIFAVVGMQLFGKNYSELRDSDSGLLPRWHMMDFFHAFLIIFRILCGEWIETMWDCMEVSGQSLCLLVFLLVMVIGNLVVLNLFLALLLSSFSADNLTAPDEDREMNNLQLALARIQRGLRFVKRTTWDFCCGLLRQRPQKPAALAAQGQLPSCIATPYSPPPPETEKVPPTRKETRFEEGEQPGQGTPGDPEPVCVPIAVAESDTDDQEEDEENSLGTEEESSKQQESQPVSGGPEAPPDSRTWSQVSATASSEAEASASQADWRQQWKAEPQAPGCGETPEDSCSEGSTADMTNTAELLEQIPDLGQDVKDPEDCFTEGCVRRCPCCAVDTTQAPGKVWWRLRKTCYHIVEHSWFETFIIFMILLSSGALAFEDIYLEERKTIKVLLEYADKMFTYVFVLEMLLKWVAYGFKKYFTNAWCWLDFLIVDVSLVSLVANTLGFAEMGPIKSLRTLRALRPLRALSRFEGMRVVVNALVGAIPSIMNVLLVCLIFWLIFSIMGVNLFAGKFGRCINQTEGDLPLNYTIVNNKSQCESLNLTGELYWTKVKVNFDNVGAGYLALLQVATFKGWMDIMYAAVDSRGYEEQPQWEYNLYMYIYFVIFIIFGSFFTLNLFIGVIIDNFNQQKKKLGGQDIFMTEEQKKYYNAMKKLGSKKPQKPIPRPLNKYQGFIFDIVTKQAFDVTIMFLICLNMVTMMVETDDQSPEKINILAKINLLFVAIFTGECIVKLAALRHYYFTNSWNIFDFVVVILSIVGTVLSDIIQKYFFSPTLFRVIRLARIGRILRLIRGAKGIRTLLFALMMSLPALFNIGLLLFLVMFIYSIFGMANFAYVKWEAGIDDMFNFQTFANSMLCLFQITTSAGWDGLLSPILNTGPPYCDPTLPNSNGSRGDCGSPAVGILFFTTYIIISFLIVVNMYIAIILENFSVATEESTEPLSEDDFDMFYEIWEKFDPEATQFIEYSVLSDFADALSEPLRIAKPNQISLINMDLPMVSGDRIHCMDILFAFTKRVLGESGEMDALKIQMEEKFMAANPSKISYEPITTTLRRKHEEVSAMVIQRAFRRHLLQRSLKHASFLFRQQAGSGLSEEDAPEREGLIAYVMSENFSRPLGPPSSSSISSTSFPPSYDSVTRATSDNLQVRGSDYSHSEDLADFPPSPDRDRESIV
assay-protocol: Inhibition of human Nav1.5
pIC50: −log10 of the molar value.
value-type: pIC50

[ask] Value lookup for pIC50; key = C[C@@H](C(N)=O)[C@H](N)c1cn2cc(C(C)(C)C)ccc2n1
[reply] < 5.00

[ask] Value lookup for pIC50; key = C[C@@H](C(N)=O)[C@H](N)c1nc2ccc(C(C)(C)C)cc2[nH]1 [PF-06305591]
[reply] < 4.52

###

system-name: Sodium channel protein type 9 subunit alpha (Homo sapiens, UniProt Q15858)
assay-protocol: Inhibition of human Nav1.7
pIC50: −log10 of the molar value.
value-type: pIC50

[ask] Value lookup for pIC50; key = C[C@@H](C(N)=O)[C@H](N)c1nc2ccc(C(C)(C)C)cc2[nH]1
[reply] < 4.52

###

system-name: Sodium channel protein type 2 subunit alpha (Homo sapiens, UniProt Q99250)
assay-protocol: Inhibition of human Nav1.2
pIC50: −log10 of the molar value.
value-type: pIC50

[ask] Value lookup for pIC50; key = C[C@@H](C(N)=O)[C@H](N)c1nc2ccc(C(C)(C)C)cc2[nH]1
[reply] < 4.52

###

system-name: Small conductance calcium-activated potassium channel protein 2 (Homo sapiens)
assay-protocol: Inhibition of SK2 (unknown origin)
value-type: IC50

[ask] Value lookup for IC50; key = C[C@@H](C(N)=O)[C@H](N)c1nc2ccc(C(C)(C)C)cc2[nH]1
[reply] > 30 µM

###

assay-protocol: Half life in rat at 1 mg/kg, iv or 3 mg/kg, po
Format: ADME, organism-based
condition-context: in vivo
value-type: half-life (h)
State the answer as a number, implicitly in h.

[ask] Value lookup for half-life; key = C[C@@H](C(N)=O)[C@H](N)c1nc2ccc(C(C)(C)C)cc2[nH]1 [PF-06305591]
[reply] 1.5

###

system-name: Voltage-gated inwardly rectifying potassium channel KCNH2 (Homo sapiens)
Sequence (Q12809 whole entry): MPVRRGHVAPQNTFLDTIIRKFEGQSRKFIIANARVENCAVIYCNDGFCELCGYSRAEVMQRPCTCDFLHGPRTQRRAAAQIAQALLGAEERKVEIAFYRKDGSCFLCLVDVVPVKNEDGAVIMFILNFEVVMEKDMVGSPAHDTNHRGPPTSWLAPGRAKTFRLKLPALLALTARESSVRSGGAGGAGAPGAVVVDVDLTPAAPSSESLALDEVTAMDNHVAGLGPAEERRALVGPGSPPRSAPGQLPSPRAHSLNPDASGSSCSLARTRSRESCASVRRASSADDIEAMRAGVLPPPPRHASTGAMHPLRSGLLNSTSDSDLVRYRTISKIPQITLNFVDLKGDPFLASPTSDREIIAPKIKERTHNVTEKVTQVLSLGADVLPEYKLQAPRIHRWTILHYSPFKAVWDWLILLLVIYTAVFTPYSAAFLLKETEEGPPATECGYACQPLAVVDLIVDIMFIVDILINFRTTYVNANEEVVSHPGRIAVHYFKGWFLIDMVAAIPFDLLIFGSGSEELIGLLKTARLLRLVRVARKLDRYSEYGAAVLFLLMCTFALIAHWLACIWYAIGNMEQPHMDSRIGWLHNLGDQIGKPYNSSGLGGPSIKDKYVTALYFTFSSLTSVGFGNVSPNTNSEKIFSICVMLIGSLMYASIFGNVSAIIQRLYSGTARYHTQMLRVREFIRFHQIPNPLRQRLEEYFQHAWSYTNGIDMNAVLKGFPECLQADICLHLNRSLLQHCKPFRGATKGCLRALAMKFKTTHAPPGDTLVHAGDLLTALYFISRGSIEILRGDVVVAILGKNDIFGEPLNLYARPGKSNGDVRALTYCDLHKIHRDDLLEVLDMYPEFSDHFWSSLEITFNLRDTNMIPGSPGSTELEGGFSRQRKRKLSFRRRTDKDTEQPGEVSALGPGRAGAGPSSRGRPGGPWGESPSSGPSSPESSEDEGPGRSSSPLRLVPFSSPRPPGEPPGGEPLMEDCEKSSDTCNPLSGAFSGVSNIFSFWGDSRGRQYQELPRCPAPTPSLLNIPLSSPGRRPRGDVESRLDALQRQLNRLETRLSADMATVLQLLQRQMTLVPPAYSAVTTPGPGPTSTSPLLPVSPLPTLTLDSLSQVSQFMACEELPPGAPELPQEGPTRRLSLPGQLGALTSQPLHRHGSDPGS
assay-protocol: Inhibition of human ERG
pIC50: −log10 of the molar value.
value-type: pIC50

[ask] Value lookup for pIC50; key = C[C@@H](C(N)=O)[C@H](N)c1nc2ccc(C(C)(C)C)cc2[nH]1
[reply] < 4.52

[ask] Value lookup for pIC50; key = C[C@@H](C(N)=O)[C@H](N)c1cn2cc(C(C)(C)C)ccc2n1
[reply] < 4.14

###

system-name: Gamma-aminobutyric acid receptor subunit alpha-1/gamma-2 (Homo sapiens, UniProt P14867+P18507)
Sequence (P14867 whole entry): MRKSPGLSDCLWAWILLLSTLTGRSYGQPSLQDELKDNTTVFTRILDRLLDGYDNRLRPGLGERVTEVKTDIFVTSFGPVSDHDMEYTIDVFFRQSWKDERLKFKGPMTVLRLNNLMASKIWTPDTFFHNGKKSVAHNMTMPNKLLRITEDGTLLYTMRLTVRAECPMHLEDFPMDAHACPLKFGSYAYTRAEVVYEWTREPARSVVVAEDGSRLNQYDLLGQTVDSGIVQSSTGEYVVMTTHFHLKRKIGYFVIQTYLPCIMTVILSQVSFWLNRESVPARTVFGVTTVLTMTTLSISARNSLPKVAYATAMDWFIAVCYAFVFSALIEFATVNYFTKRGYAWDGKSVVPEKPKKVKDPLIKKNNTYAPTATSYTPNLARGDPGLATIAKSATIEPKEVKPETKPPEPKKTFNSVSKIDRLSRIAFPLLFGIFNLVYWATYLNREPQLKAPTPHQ
Sequence (P18507 whole entry): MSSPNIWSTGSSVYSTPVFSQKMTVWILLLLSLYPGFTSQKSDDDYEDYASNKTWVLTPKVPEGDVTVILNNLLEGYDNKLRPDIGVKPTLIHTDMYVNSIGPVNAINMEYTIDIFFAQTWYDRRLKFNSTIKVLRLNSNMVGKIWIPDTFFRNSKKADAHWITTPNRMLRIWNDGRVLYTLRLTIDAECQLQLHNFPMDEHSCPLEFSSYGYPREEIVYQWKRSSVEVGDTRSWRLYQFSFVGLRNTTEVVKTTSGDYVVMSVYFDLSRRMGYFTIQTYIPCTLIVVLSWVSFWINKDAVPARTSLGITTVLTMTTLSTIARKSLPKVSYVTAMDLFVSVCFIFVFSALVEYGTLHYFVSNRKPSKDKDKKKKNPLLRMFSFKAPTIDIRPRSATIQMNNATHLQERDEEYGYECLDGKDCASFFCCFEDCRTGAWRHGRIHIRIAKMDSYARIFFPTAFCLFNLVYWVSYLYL
assay-protocol: Inhibition of GABA receptor alpha1gamma2 (unknown origin)
pIC50: −log10 of the molar value.
value-type: pIC50

[ask] Value lookup for pIC50; key = C[C@@H](C(N)=O)[C@H](N)c1nc2ccc(C(C)(C)C)cc2[nH]1
[reply] < 4.52

###

assay-protocol: Volume of distribution in rat at 1 mg/kg, iv or 3 mg/kg, po
Assay type: ADME, organism-based
condition-context: in vivo
value-type: Vd (L/kg)
State the answer as a number, implicitly in L/kg.

[ask] Value lookup for Vd; key = C[C@@H](C(N)=O)[C@H](N)c1nc2ccc(C(C)(C)C)cc2[nH]1
[reply] 2.3

###

system-name: Sodium channel protein type 8 subunit alpha (Homo sapiens, UniProt Q9UQD0)
Sequence (Q9UQD0 whole entry): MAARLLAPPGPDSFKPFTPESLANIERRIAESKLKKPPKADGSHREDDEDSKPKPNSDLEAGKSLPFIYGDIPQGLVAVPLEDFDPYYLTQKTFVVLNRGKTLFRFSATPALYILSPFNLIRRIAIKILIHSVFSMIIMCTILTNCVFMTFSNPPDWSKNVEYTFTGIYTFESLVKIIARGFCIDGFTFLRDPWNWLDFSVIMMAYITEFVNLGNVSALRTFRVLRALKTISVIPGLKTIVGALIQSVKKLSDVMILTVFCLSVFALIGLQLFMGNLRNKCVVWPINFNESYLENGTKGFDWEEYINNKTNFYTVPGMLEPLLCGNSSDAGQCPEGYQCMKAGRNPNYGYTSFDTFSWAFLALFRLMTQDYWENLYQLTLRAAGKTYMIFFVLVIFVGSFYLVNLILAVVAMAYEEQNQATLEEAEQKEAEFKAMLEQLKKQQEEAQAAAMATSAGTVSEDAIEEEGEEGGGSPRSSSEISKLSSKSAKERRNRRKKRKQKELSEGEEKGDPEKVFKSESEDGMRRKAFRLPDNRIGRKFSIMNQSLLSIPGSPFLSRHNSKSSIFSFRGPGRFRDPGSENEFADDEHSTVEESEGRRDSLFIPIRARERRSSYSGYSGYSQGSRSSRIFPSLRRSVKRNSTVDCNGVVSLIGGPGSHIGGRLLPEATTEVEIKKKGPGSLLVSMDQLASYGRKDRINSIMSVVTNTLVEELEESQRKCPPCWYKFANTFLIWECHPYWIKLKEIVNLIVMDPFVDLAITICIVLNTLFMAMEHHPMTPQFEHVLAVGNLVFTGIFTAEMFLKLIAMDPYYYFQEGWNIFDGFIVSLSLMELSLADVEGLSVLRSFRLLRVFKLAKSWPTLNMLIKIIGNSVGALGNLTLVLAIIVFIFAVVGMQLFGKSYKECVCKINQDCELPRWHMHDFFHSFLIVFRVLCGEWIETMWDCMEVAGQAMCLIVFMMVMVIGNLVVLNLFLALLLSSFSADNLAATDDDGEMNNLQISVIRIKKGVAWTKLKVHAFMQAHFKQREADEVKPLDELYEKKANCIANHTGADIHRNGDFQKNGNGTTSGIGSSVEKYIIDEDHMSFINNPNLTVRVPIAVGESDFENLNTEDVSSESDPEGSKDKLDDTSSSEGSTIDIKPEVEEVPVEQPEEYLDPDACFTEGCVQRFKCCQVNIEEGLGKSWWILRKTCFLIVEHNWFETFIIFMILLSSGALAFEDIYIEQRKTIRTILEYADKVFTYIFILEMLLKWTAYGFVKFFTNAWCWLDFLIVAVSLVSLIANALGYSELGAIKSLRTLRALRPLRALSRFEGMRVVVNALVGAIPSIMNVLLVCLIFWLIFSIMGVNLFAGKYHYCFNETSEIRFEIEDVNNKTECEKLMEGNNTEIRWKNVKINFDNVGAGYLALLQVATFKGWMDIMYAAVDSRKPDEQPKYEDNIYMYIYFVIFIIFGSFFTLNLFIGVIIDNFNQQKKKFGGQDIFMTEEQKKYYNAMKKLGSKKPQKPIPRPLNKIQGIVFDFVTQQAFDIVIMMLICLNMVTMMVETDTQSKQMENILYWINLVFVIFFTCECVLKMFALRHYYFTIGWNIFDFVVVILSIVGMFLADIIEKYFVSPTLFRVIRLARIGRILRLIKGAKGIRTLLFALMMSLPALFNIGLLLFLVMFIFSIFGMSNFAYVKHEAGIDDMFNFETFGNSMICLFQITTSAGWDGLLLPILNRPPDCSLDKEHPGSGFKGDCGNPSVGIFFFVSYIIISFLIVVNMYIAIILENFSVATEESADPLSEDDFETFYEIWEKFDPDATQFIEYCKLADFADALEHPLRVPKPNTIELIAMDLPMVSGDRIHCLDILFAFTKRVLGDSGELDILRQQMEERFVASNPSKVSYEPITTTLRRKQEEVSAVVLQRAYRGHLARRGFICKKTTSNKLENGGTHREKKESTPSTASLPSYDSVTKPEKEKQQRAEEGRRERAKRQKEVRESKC
assay-protocol: Inhibition of human Nav1.6
pIC50: −log10 of the molar value.
value-type: pIC50

[ask] Value lookup for pIC50; key = C[C@@H](C(N)=O)[C@H](N)c1nc2ccc(C(C)(C)C)cc2[nH]1
[reply] < 4.52

###

system-name: Sodium channel protein type 3 subunit alpha (Homo sapiens)
assay-protocol: Inhibition of human Nav1.3
pIC50: −log10 of the molar value.
value-type: pIC50

[ask] Value lookup for pIC50; key = C[C@@H](C(N)=O)[C@H](N)c1nc2ccc(C(C)(C)C)cc2[nH]1
[reply] < 4.52

###

assay-protocol: AUC (0 to infinity) in rat at 1 mg/kg, iv or 3 mg/kg, po
Format: ADME, organism-based
condition-context: in vivo
value-type: AUC(0-inf) (ng·h/mL)
State the answer as a number, implicitly in ng·h/mL.

[ask] Value lookup for AUC(0-inf); key = C[C@@H](C(N)=O)[C@H](N)c1nc2ccc(C(C)(C)C)cc2[nH]1
[reply] 962
